study target: Cytochrome P450 3A4 (Homo sapiens)
experiment notes: qHTS Assay for Inhibitors and Substrates of Cytochrome P450 3A4 (AID 884); note: nearly all actives have a fitted effect of over 50% in size; note: potency is the fitted concentration of half-maximal effect
condition info: recombinant CYP3A4, Luciferin-PPXE luminescence; series mostly up to 57.1 µM
Results filed as inconclusive are left out. Activity calls are given as the source filed them. Calls come from the whole dose curve; as a rule, active = well fitted inhibition curve with a large enough effect; inconclusive = small, poorly fitted or top-dose-only effect; inactive = no such curve, though single readings can be large or run the other way.
property name: Potency

INSERT INTO results (compound, value) VALUES
  ('CC12C=C(/C=C/C=C/c3ccccc3)C(C)(C1)C(/C=C/c1ccccc1)CC2=O (centres undefined)', '3.98 µM (active)'),
  ('COc1ccc(O[C@H]2C=C[C@@H](c3ccccc3)O[C@H]2COC(=O)CC/C(C)=N\O[C@@H](C)CN2CCCc3nc(C)c(C)cc32)cc1', '3.16 µM (active)'),
  ('COc1ccc(O[C@H]2C=C[C@@H](c3ccccc3)O[C@H]2CO/N=C2/[C@H]3O[C@@H]3[C@@H](O)[C@H]3[C@H]2CCn2c(=O)n(-c4ccccc4)c(=O)n23)cc1', '3.16 µM (active)'),
  ('COC(=O)c1ccc(C(NC(=O)OCc2ccccc2)/C(F)=C/[C@@H](C)C(=O)NCc2nc3ccccc3s2)cc1 (some centres undefined)', '7.94 µM (active)'),
  ('COC(=O)[C@@H]1C[C@@]2(O)[C@H](O)[C@H](O)[C@H](O)C[C@H]2N1CC1CC1', 'inactive'),
  ('CC(C)(C)[Si](OCC[C@@H]1C[C@@]1(C)[C@@H](NP(=O)(c1ccccc1)c1ccccc1)c1ccccc1)(c1ccccc1)c1ccccc1', '12.6 µM (active)'),
  ('Cc1ccc(CNC(=O)C2(CC(C)C)C=CCN2C(=O)c2ccccc2)o1 (centres undefined)', '15.8 µM (active)'),
  ('C=CC(C1=CC(=O)C(OC)=CC1=O)c1ccc(OC)cc1 (centres undefined)', '25.1 µM (active)'),
  ('O=C(N/N=C1/C[C@@H](O)[C@@H](O)[C@@H]2[C@@H]3C(=O)N(Cc4ccc5c(c4)OCO5)C(=O)[C@H]3CC[C@@H]12)OCc1ccccc1', '1.26 µM (active)'),
  ('Nc1ncnc2c1[nH]c(=O)n2C1CC(O)C(CO)O1 (centres undefined)', 'inactive');

## Input For Cc1ccc(S(=O)(=O)N[C@H]2COC(=O)CC=C[C@@H](C)[C@H]3C=C[C@H](O)[C@@H](COC(=O)CC=C[C@H]2C)O3)cc1 , what is its reported Potency?
## Output 3.16 µM (active)

## Input # lookup: Potency of CCC1=C2CC[C@H]3C(=O)N(C)C(=O)[C@H]3[C@H]2[C@@]2(Cc3ccccc3)C(=NCC3CC3)OC(=O)N2C1=O
## Output 5.01 µM (active)
